Below, each entry is listed alongside its reported Pf_120h_%Growth_Rep2.
# Test system: P. falciparum 3D7 parasites
# test name: P. falciparum growth inhibition assay, 2-cycle (120 h treatment), delayed-death screen and dose-response
# Type: cell-based, Plasmodium falciparum
# settings: library screen at 2 μg/mL, 120 h, % growth, replicate 2

Solved entries:
CN1C(=O)c2ccccc2-n2c(nc3ccccc3c2=O)[C@@]12O[C@H]2c1ccccc1 [Benzomalvin C]
71.59%
CN(C)[C@H]1C(O)=C(C(N)=O)C(=O)[C@@]2(O)C(O)=C3C(=O)c4c(O)cccc4[C@@](C)(O)[C@H]3[C@H](O)[C@@H]12 [Epioxytetracycline]
96.08%
CC[C@]1(C)C[C@@H](OC(=O)CO)C2(C)[C@H](C)CCC3(CCC(=O)[C@H]32)[C@@H](C)[C@@H]1O (stereo partly drawn) [Dihydropleuromutilin]
51.71%
C[C@@H]1CCCCCCCCC[C@H](OC(=O)CCC(=O)O)C(=O)/C=C/C(=O)O1 [A 26771B]
89.23%
CCCC[C@@H](C)[C@@H](OC(=O)C[C@@H](CC(=O)O)C(=O)O)[C@H](C[C@@H](C)C[C@H](O)CCCC[C@@H](O)C[C@H](O)[C@H](C)N)OC(=O)C[C@@H](CC(=O)O)C(=O)O [Fumonisin B1]
120.58%

Let us examine a further case.
Reading of Pf_120h_%Growth_Rep2 for CCCCCC(=O)C(CCCC)c1oc(=O)c(CCCC)c(O)c1CCCC (stereo not drawn) [Elasnin] with P. falciparum 3D7 parasites: 81.51%

====

# Test system: P. falciparum 3D7 parasites
# test name: P. falciparum growth inhibition assay, 1-cycle (72 h treatment), SYBR DNA staining (library screen at 2 μg/mL and dose-response)
# Assay type: cell-based, Plasmodium falciparum
# settings: P. falciparum 3D7, 72 h, parasite screen at 2 μg/mL, % growth, replicate 1
endpoint: Pf_72h_%Growth_Rep1 (%)
I only need the number, in %, no unit after it.

CC=C(C)c1c(Cl)c(O)c(C)c2c1Oc1c(Cl)c(O)c(Cl)c(C)c1C(=O)O2
85.21
Cc1ncc(-c2c[nH]c3ccccc23)o1
82.71
COc1cccc2oc3c4c(cc(OC)c3c(=O)c12)O[C@H]1OC=C[C@@H]41
80.14

Looking up CC=CC(C)=CC(C)C(=O)CC(O)CC1CC(=O)NC(=O)C1 (centres unmarked) , I found its Pf_72h_%Growth_Rep1 recorded as 71.61

Looking up CC1=CCC2CC(CC3(CCC(C)C(C)O3)O2)OC(=O)C2C=C(C)C(O)C3OCC(=CC=CC(C)C1)C23O (centres unmarked) , I found its Pf_72h_%Growth_Rep1 recorded as 47.24

Looking up `C[C@H]1C(=O)O[C@@H]2CCN3CC=C(COC(=O)[C@](C)(O)[C@]1(C)O)[C@H]23` , I found its Pf_72h_%Growth_Rep1 recorded as 85.52

====

# System: P. falciparum 3D7 parasites
# test name: P. falciparum growth inhibition assay, 1-cycle (72 h treatment), SYBR DNA staining (library screen at 2 μg/mL and dose-response)
# Format: cell-based, Plasmodium falciparum
# settings: P. falciparum 3D7, 72 h, library screen at 2 μg/mL, % growth, replicate 2
Below, each entry is listed alongside its reported Pf_72h_%Growth_Rep2.
I only need the number, in %, no unit after it.

Looking up CCCCCC(O)C1C(=O)OC(C)C(O)C=CC=CC=CC=CC=C(C)C(O)C(O)C(O)CC(O)CC(O)CC(O)CC(O)CC1O (centres unmarked) , I found its Pf_72h_%Growth_Rep2 recorded as 58.30

Looking up COC(=O)C1(O)CC2OC1(C)n1c3ccccc3c3c4c(c5c6ccccc6n2c5c31)CNC4=O (centres unmarked) , I found its Pf_72h_%Growth_Rep2 recorded as 0.48

Looking up COC(=O)C1=COC(C)C2CN3CCc4c([nH]c5cc(OC)c(OC)cc45)C3CC12 (centres unmarked) , I found its Pf_72h_%Growth_Rep2 recorded as 24.20

Looking up CCC(C(=O)C(C)C(O)C(C)CCc1ccc(C)c(O)c1C(=O)O)C1OC(CC)(C2CCC(O)(CC)C(C)O2)CC1C (centres unmarked) , I found its Pf_72h_%Growth_Rep2 recorded as 4.89

Looking up `COc1c(O)c(C)c(C)c(O)c1OC` , I found its Pf_72h_%Growth_Rep2 recorded as 2.27

Looking up COc1cc(O)c2c(c1)C=CCC(O)C(O)C(=O)C=CCC(C)OC2=O (centres unmarked) , I found its Pf_72h_%Growth_Rep2 recorded as 92.24

Looking up `COC1=C(OC)C(=O)[C@@H](C)[C@H](C)C1=O` , I found its Pf_72h_%Growth_Rep2 recorded as 3.13

Looking up `Cc1cc(OC(=O)c2c(C)cc(O)cc2O)cc(O)c1C(=O)O` , I found its Pf_72h_%Growth_Rep2 recorded as 54.17

Looking up COc1ccc2c(c1OC)C(=O)OC2C1c2cc3c(cc2CCN1C)OCO3 (centres unmarked) , I found its Pf_72h_%Growth_Rep2 recorded as 87.48

Looking up `COC1=CC(=O)C[C@@H](C)[C@]12Oc1c(Cl)c(OC)cc(OC)c1C2=O` , I found its Pf_72h_%Growth_Rep2 recorded as 108.96

Looking up `O=c1cc(CO)occ1O` , I found its Pf_72h_%Growth_Rep2 recorded as 96.29

Looking up COC1C(O)CC(=O)OC(C)CC=CC=CC(O)C(C)CC(CC=O)C1OC1OC(C)C(OC2CC(C)(O)C(OC(=O)CC(C)C)C(C)O2)C(N(C)C)C1O (centres unmarked) , I found its Pf_72h_%Growth_Rep2 recorded as 67.33

Measured values drawn from paper PMC12396409 for this set.
